The measurements presented in this section are drawn from patent US9702869B2.

Tested on: monoclonal antibody 61C6
experiment.summary: Cross-reactivity evaluation with lyophilized reagents (Bi-mAb-Beads capture, TAG Plus 1-5C-5-FU-BSA detector)
Assay type: binding, Balb/c mouse
assay.setup: With 1000 ng/mL Spiked 5-FU
Could you label it label 1 if measured % Cross-React is 0.9% or higher, and label 0 otherwise?

Recorded results for 5 compounds are shown here.
Nc1nc(=O)c2c([nH]1)NCC(CNc1ccc(C(=O)N[C@@H](CCC(=O)O)C(=O)O)cc1)N2C=O (mixture of isomers): label 0
Cc1cn([C@H]2C[C@H](O)[C@@H](CO)O2)c(=O)[nH]c1=O: label 1
Cc1c[nH]c(=O)[nH]c1=O: label 1
O=c1cc[nH]c(=O)[nH]1: label 1
CN(Cc1cnc2nc(N)nc(N)c2n1)c1ccc(C(=O)N[C@@H](CCC(=O)O)C(=O)O)cc1 [Methotrexate]: label 0

[Q] Entry N.N.[Cl][Pt][Cl] [Cisplatin] : is its % Cross-React no less than 0.9%?
[A] label 0

[Q] Tell me whether % Cross-React is at least 0.9% here: CCCCCOC(=O)Nc1nc(=O)n([C@@H]2O[C@H](C)[C@@H](O)[C@H]2O)cc1F
[A] label 0

[Q] Evaluate O=C1[O][Pt]2([NH][C@@H]3CCCC[C@H]3[NH]2)[O]C1=O : % Cross-React at minimum 0.9%?
[A] label 0
